Answer each item with its documented Φfl (pH 13).
procedure-details: Fluorescence quantum yield
Assay type: physicochemical
condition-label: pH 13, xanthene OH deprotonated
Numbers only.

Below are worked cases with known answers.
{"smi": "COc1ccccc1-c1c2ccc(=O)cc-2oc2cc(O)ccc12", "reported-endpoint": "Φfl (pH 13)", "measured-value": 0.860}
{"smi": "COc1ccc(OC)c(-c2c3ccc(=O)cc-3oc3cc(O)ccc23)c1", "reported-endpoint": "Φfl (pH 13)", "measured-value": 0.010}
{"smi": "Cc1ccc(-c2c3ccc(=O)cc-3oc3cc(O)ccc23)c(C)c1", "reported-endpoint": "Φfl (pH 13)", "measured-value": 0.865}
{"smi": "Cc1ccc(C)c(-c2c3ccc(=O)cc-3oc3cc(O)ccc23)c1", "reported-endpoint": "Φfl (pH 13)", "measured-value": 0.887}
{"smi": "COc1ccc(-c2c3ccc(=O)cc-3oc3cc(O)ccc23)c(C)c1", "reported-endpoint": "Φfl (pH 13)", "measured-value": 0.840}
{"smi": "Cc1ccccc1-c1c2ccc(=O)cc-2oc2cc(O)ccc12", "reported-endpoint": "Φfl (pH 13)", "measured-value": 0.847}

For the 2 molecules below, give their Φfl (pH 13) values.
1. COc1ccc(C)cc1-c1c2ccc(=O)cc-2oc2cc(O)ccc12
2. COc1ccc(-c2c3ccc(=O)cc-3oc3cc(O)ccc23)c(OC)c1

[0.500, 0.200]

* * *

procedure-details: Oxidation potential of the benzene ring moiety (PET donor)
Type: physicochemical
condition-label: 0.1 M acetonitrile containing tetrabutylammonium perchlorate (TBAP)
Criterion: Oxidation potential strictly less than 2 V vs SCE. Met: met. Not met: not met.

Field: example entries. Status: answers known.
{"molecule": "COc1ccc(-c2c3ccc(=O)cc-3oc3cc(O)ccc23)c(OC)c1 [Compound 7]", "class-label": "met"}
{"molecule": "COc1ccccc1-c1c2ccc(=O)cc-2oc2cc(O)ccc12 [Compound 4]", "class-label": "met"}
{"molecule": "Cc1ccc(-c2c3ccc(=O)cc-3oc3cc(O)ccc23)c(C)c1 [Compound 2]", "class-label": "not met"}
{"molecule": "COc1ccc(C)cc1-c1c2ccc(=O)cc-2oc2cc(O)ccc12 [Compound 6]", "class-label": "met"}
{"molecule": "COc1ccc(-c2c3ccc(=O)cc-3oc3cc(O)ccc23)c(C)c1 [Compound 5]", "class-label": "met"}
{"molecule": "Cc1ccccc1-c1c2ccc(=O)cc-2oc2cc(O)ccc12 [Compound 1]", "class-label": "not met"}

Let us examine a further case.
Item COc1ccc(OC)c(-c2c3ccc(=O)cc-3oc3cc(O)ccc23)c1 [Compound 8] : Oxidation potential beneath 2 V vs SCE, strictly? met

* * *

procedure-details: Maximum excitation and fluorescence wavelength of fluorescein derivatives
Format: physicochemical
condition-label: measured in 0.1 N aqueous NaOH
reported-endpoint: Maximum excitation wavelength (nm)
Answers are plain numbers, in nm.

Below are worked cases with known answers.
{"smi": "COc1ccccc1-c1c2ccc(=O)cc-2oc2cc(O)ccc12", "Maximum excitation wavelength, nm": 494}
{"smi": "COc1ccc(OC)c(-c2c3ccc(=O)cc-3oc3cc(O)ccc23)c1", "Maximum excitation wavelength, nm": 494}
{"smi": "Cc1ccc(-c2c3ccc(=O)cc-3oc3cc(O)ccc23)c(C)c1", "Maximum excitation wavelength, nm": 491}
{"smi": "COc1ccc(-c2c3ccc(=O)cc-3oc3cc(O)ccc23)c(OC)c1", "Maximum excitation wavelength, nm": 494}
{"smi": "Cc1ccc(C)c(-c2c3ccc(=O)cc-3oc3cc(O)ccc23)c1", "Maximum excitation wavelength, nm": 491}

For the 2 molecules below, give their Maximum excitation wavelength values.
1. Cc1ccccc1-c1c2ccc(=O)cc-2oc2cc(O)ccc12
2. COc1ccc(-c2c3ccc(=O)cc-3oc3cc(O)ccc23)c(C)c1

1: 491; 2: 492

Maximum excitation wavelength recorded for this molecule, COc1ccc(C)cc1-c1c2ccc(=O)cc-2oc2cc(O)ccc12 , is 494
